# Tested on: HL-60(TB) leukemia
# assay-overview: NCI tumour cell line growth inhibition, 48 h
A collection of compounds and their measured TGI

| compound | inequality-symbol | TGI [µM] |
| --- | --- | --- |
| CCCCOc1ccc2c(c1)CC[C@@H]1[C@@H]2CC[C@]2(C)C(=O)N(CCCC)C(=O)C[C@@H]12 | > | 100 |
| Cc1cn([C@@H]2C[C@H](CO)[C@@H]2O)c(=O)[nH]c1=O | > | 100 |
| CCCCCCCCNC(C)C(O)c1ccc(SC(C)C)cc1 (stereo unspecified) | = | 4.07 |
| COc1ccc(C(=O)/C=C/c2cc(-c3ccc4c(c3)OCO4)n[nH]2)cc1OC | = | 11.8 |
| COc1ccc(C2=C(Cl)c3cc(OC)c(OC)cc3C2)cc1OC | > | 100 |
| ClC1c2ccccc2C2(c3ccccc3)OOC1(c1ccccc1)O2 (stereo unspecified) | = | 0.309 |
